Consider the following molecules; for each one, report its pest or weed control at 70 g/ha.
tested on: SASKR: Russian thistle (Salsola iberica); assay: Post-emergent Test III, herbicidal activity in wheat and barley; assay type: in vivo; details: Salsola tragus, post-emergence, 504 h; 70 g ai/ha; 21 days after application; read-out: Visual Gorowth Reduction (%) 21 days After Application SASKR

COC(=O)c1nc(-c2ccc(I)c(F)c2F)c(F)c(N)c1Cl    75 to 84%
Nc1c(F)c(-c2cc(F)c(I)cc2F)nc(C(=O)O)c1Cl    85 to 94%
COc1c(N)nc(-c2ccc(Br)c(F)c2F)nc1C(=O)O    85 to 94%
Nc1c(F)c(-c2ccc(Br)cc2F)nc(C(=O)O)c1Cl    85 to 94%
Nc1c(F)c(-c2ccc(I)c(F)c2F)nc(C(=O)O)c1Cl    85 to 94%

Quickly give me recorded pest or weed control at 70 g/ha for Nc1c(F)c(-c2ccc(Br)c(F)c2)nc(C(=O)O)c1Cl 85 to 94%

====

system: KCHSC: kochia (Kochia scoparia); test: Post-emergent Test III, herbicidal activity in wheat and barley; type: in vivo; details: Table 9; dose for 80 percent growth reduction, probit analysis; 21 d
Please use Condition met whenever GR80 KCHSC is not below 30 g ai/ha, and Condition not met whenever it is.

COC(=O)c1nc(-c2ccc(Br)cc2F)nc(N)c1OC [Compound 35]    Condition met

Hi, just wondering whether COC(=O)c1nc(-c2ccc(I)cc2F)cc(N)c1Cl [Compound 159] shows GR80 KCHSC of 30 g ai/ha or higher. Condition not met

Hi, just wondering whether COC(=O)c1nc(-c2ccc(Br)cc2)c(Cl)c(N)c1Cl [Compound 47] shows GR80 KCHSC of 30 g ai/ha or higher. Condition met

Hi, just wondering whether COC(=O)c1nc(-c2cc(F)c(Br)cc2F)c(F)c(N)c1Cl [Compound 51] shows GR80 KCHSC of 30 g ai/ha or higher. Condition not met

Hi, just wondering whether Nc1cc(-c2ccc(Br)cc2)nc(C(=O)O)c1Cl [Compound 168] shows GR80 KCHSC of 30 g ai/ha or higher. Condition not met

Hi, just wondering whether Cc1c(-c2ccc(C(F)(F)F)c(F)c2)nc(C(=O)O)c(Cl)c1N [Compound 161] shows GR80 KCHSC of 30 g ai/ha or higher. Condition met

Hi, just wondering whether COC(=O)c1nc(-c2ccc(I)cc2)c(Cl)c(N)c1Cl [Compound 96] shows GR80 KCHSC of 30 g ai/ha or higher. Condition met

Hi, just wondering whether Nc1c(Cl)c(C(=O)O)nc(-c2ccc(Br)cc2)c1Cl [Compound 125] shows GR80 KCHSC of 30 g ai/ha or higher. Condition met

Hi, just wondering whether COc1c(N)nc(-c2ccc(C(F)(F)F)c(F)c2F)nc1C(=O)O [Compound 76] shows GR80 KCHSC of 30 g ai/ha or higher. Condition met

====

system: Key Broadleaf Weed and Crop Species; experiment: Post-emergent Test II herbicidal activity (Table 5); format: in vivo; conditions: post-emergence, 336 h; CHEAL: lambsquarters (Chenopodium album); 140 g ai/ha; post-emergent; 14 days after application; read-out: Visual Growth Reduction (%) 14 Days After Application CHEAL
Consider the following compounds; for each one, report its pest or weed control at 140 g/ha.

COC(=O)c1nc(-c2cc(F)c(F)cc2F)c(F)c(N)c1Cl [Compound 200]    95 to 100%

Please give pest or weed control at 140 g/ha for each item listed below.
1. COC(=O)c1nc(-c2ccc(I)c(F)c2)cc(N)c1Cl [Compound 66]
2. Nc1c(Cl)c(C(=O)O)nc(-c2ccc(OC(F)F)cc2)c1Cl [Compound 33]
3. C=Cc1c(C(=O)O)nc(-c2ccc(C(F)(F)F)c(F)c2)c(F)c1N [Compound 86]

["85 to 94%", "0 to 29%", "95 to 100%"]

Quickly give me recorded pest or weed control at 140 g/ha for COc1c(N)nc(-c2cc(F)c(I)cc2F)nc1C(=O)O [Compound 119] 95 to 100%
